biological target: 5-HT1a (Homo sapiens, UniProt P08908); construct: purchased Euroscreen/BioSignal Packard Inc; test: Radioligand binding, 5-HT1a ([3H]8-OH-DPAT); settings: Table 4; [3H]8-OH-DPAT 0.5 nM; read-out: Binding affinity, IC50 (nM) 5-HT1a
Sequence (P08908 whole entry): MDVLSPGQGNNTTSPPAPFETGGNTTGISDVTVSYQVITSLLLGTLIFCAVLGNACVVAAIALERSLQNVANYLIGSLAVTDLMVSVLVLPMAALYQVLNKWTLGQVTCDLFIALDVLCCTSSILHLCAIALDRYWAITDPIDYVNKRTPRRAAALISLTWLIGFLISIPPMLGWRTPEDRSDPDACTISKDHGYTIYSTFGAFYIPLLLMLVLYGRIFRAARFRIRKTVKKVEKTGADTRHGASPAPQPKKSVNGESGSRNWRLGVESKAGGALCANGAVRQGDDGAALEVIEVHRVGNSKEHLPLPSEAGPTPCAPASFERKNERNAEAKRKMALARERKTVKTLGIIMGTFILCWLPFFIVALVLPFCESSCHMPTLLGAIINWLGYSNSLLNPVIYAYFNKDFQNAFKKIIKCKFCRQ
One threshold, 8000 nM, splits the recorded IC50 values: lower ones are rule met, equal or higher ones are rule not met.

Examples from the recorded data:
[
  {
    "compound": "CC1(c2ccc(O)cc2)C(=O)c2c(N3CCNCC3)cc(Cl)cc2N(Cc2ccc(-c3ccccc3)cc2)C1=O (stereo not shown) [Example 42]",
    "labelClass": "rule met"
  },
  {
    "compound": "CC1(c2ccc(O)cc2)C(=O)c2c(N3CCNCC3)cc(Cl)cc2N(Cc2cccnc2)C1=O (stereo not shown) [Example 38]",
    "labelClass": "rule not met"
  },
  {
    "compound": "CC1(c2ccc(O)cc2)C(=O)c2c(N3CCNCC3)cc(Cl)cc2N(Cc2ccc3ccccc3n2)C1=O (stereo not shown) [Example 45]",
    "labelClass": "rule not met"
  }
]

Determine if COc1ccc(C2(C)C(=O)c3c(N4CCNCC4)cc(Cl)cc3N(Cc3cccc([N+](=O)[O-])c3)C2=O)cc1 (stereo not shown) [Example 23] shows IC50 strictly lower than 8000 nM. rule not met

hey, is IC50 for COc1ccc([C@@]2(C)C(=O)c3c(N4CCNCC4)cc(Cl)cc3N(Cc3ccccc3)C2=O)cc1 [Example 13-1] lower than 8000 nM or not? rule met

Is IC50 of C[C@@]1(c2ccc(O)cc2)C(=O)c2c(N3CCNCC3)cc(Cl)cc2N(Cc2ccccc2)C1=O [Example 14-2] strictly below 8000 nM? rule met
